# target under test: Recombinant human HDAC3/SMRT heterodimer (Homo sapiens, UniProt O15379)
# Construct: FLAG (C); made in house
# Sequence (O15379 whole entry): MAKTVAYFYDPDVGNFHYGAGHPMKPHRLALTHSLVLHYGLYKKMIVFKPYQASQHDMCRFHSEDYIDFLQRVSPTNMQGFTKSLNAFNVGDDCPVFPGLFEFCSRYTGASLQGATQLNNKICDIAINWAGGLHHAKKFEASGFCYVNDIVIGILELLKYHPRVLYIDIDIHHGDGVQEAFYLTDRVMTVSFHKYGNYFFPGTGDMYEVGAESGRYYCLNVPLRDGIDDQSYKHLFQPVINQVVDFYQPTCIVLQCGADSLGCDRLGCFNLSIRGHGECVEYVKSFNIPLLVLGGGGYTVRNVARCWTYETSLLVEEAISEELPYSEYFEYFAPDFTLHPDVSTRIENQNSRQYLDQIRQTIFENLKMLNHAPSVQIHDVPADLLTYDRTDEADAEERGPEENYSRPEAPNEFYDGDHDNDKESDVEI
# Sequence (Q9Y618 1-899 partner limits assumed): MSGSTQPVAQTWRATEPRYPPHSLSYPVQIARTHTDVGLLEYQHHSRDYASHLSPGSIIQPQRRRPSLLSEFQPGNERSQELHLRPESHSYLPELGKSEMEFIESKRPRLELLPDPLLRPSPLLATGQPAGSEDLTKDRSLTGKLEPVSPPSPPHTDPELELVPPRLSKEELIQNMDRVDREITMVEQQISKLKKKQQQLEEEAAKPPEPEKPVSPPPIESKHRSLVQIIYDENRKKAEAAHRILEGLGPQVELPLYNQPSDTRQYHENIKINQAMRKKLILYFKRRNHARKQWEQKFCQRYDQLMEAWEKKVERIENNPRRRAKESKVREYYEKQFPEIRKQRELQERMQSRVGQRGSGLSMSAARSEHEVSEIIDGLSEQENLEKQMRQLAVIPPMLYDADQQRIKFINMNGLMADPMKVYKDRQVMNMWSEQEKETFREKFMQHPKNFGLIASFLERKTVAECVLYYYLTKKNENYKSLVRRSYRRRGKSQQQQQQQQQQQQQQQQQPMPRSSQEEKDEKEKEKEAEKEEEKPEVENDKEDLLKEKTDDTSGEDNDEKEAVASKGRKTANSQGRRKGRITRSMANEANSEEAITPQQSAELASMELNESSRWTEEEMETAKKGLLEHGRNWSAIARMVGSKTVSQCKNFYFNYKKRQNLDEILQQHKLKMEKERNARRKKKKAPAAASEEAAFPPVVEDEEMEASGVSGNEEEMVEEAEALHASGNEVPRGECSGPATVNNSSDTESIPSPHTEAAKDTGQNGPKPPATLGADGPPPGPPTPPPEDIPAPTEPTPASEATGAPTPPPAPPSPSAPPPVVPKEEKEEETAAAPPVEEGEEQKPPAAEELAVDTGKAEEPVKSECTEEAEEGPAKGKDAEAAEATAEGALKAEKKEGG
# assay protocol: Human HDAC enzyme inhibitor Fluor-de-Lys assay, HDAC3/SMRT
# Format: biochemical
measured endpoint: IC50 (nM)

* CCC(=O)CCCCC[C@H](NC(=O)[C@H]1CC12CCN(CC)CC2)c1ncc(-c2ccc3c(=O)n(CC)ccc3c2)o1 | 2.84
* CCC(=O)CCCCC[C@H](NC(=O)C1CC12CCN(C)C(C)(C)C2)c1ncc(-c2ccc3nc(C)ccc3c2)[nH]1 (single isomer, unassigned) [Compound 131] | 0.57
* CCC(=O)CCCCC[C@H](NC(=O)[C@H]1CC12CCN(C)CC2)c1ncc(-c2coc3ccccc3c2=O)[nH]1 | 12.1
